# SYSTEM: Arginase-2, mitochondrial (Homo sapiens)
# ASSAY: in vitro enzyme assay to detect the production of urea directly proportional to the activity of Arginase II
# Type: functional
# Set-up: scale not given: in the data most compounds retested in dose-response had high values
# DETAILS: 33.3 µM
Field: Percent Effect. Provide a value for each of the compounds that follow.
I only need the number, in %, no unit after it.

Query: Any idea what Percent Effect was measured for `NC(=O)c1ccc(N2CCCCC2)c(NC(=O)c2cc(Br)ccc2F)c1` ?
Response: -16.6

Query: Any idea what Percent Effect was measured for Fc1ccc(CN2CCCC2c2cncc(-n3ccnc3)n2)cc1 (configuration not stated) ?
Response: 0.885

Query: Any idea what Percent Effect was measured for Cc1nc(COc2ccc(CNCC3CN(C)CCO3)cc2)cs1 (configuration not stated) ?
Response: 3.07

Query: Any idea what Percent Effect was measured for `O=C(Cn1cccnc1=O)NCCc1ccc2c(c1)OCCO2` ?
Response: 1.77

Query: Any idea what Percent Effect was measured for COC1CCCN(C(=O)Nc2nc(C)n(C)n2)C1 (configuration not stated) ?
Response: 1.56

Query: Any idea what Percent Effect was measured for COCCn1cc(C(=O)N2CCCC2c2cccc(F)c2)ccc1=O (configuration not stated) ?
Response: 2.38

Query: Any idea what Percent Effect was measured for Cc1[nH]c(=O)[nH]c(=O)c1CN1CCCC(CCc2ccccc2)C1 (configuration not stated) ?
Response: 0.952

Query: Any idea what Percent Effect was measured for `CN1CC2(CCN(Cc3ccoc3)CC2)COc2ccccc2S1(=O)=O` ?
Response: 5.21

Query: Any idea what Percent Effect was measured for `Cc1nc(N2CCN(C(=O)C3CC3)CC2)c2c(n1)c(C)nn2C` ?
Response: -4.75

Query: Any idea what Percent Effect was measured for `CCOC1CCN(C(=O)c2cnn(-c3ccccc3Cl)c2)CC1` ?
Response: 0.802

Query: Any idea what Percent Effect was measured for `CCn1cnnc1C1CCN(C(=O)c2ccc3cc[nH]c3c2)CC1` ?
Response: 3.55

Query: Any idea what Percent Effect was measured for CC(C)Oc1cccc(C(=O)C2CCCN(C(=O)c3ncn[nH]3)C2)c1 (configuration not stated) ?
Response: -1.91

Query: Any idea what Percent Effect was measured for `CCNC(=O)[C@@H]1C[C@@H](NC(=O)Cc2ccccn2)CN1CCCSC` ?
Response: -1.2

Query: Any idea what Percent Effect was measured for `O=C(NCCNc1cnccn1)N1CCN(Cc2cccnc2)CC1` ?
Response: 1.5

Query: Any idea what Percent Effect was measured for COc1ccccc1CC1CCCN(CC(=O)N2CCOCC2)C1 (configuration not stated) ?
Response: 2.32

Query: Any idea what Percent Effect was measured for `CC(C)C(=O)N1CCN(Cc2csc(-c3ncccn3)n2)CC1` ?
Response: 0

Query: Any idea what Percent Effect was measured for CCOc1ccccc1CSc1nnc(CC2CCS(=O)(=O)C2)n1C (configuration not stated) ?
Response: 1.74

Query: Any idea what Percent Effect was measured for `N#Cc1ccccc1OCCN1CCn2c(nnc2C2CC2)C1` ?
Response: -0.444

Query: Any idea what Percent Effect was measured for Cn1cnc2c1C(COCC1CC1)CN(Cc1ccc3c(c1)OCO3)C2 (configuration not stated) ?
Response: -3.75

Query: Any idea what Percent Effect was measured for `O=C(Nc1cccc(CNCc2cccs2)c1)C1CCCC1` ?
Response: -2.16

Query: Any idea what Percent Effect was measured for CSc1ccc(-c2nc(CN3CCC(NC(C)=O)C3)c(C)o2)cc1 (configuration not stated) ?
Response: -3.33

Query: Any idea what Percent Effect was measured for `CN(CCN1CCOCC1)C(=O)CCc1cccc(Cl)c1` ?
Response: -9.47

Query: Any idea what Percent Effect was measured for Cc1cn2c(n1)CCC(NC(=O)c1c[nH]c(C)n1)C2 (configuration not stated) ?
Response: 0

Query: Any idea what Percent Effect was measured for `Cc1cc(CN2CCN(c3nn4cc(C)nc4s3)CC2)on1` ?
Response: 0.215

Query: Any idea what Percent Effect was measured for `CCSc1cc(C(=O)NCc2ccccc2O)ccn1` ?
Response: -0.909

Query: Any idea what Percent Effect was measured for `Cc1ccc(-n2nnc(C(=O)NS(C)(=O)=O)c2C2CC2)cc1` ?
Response: -1.66

Query: Any idea what Percent Effect was measured for `CN(Cc1ccc(Cl)c(Cl)c1)C(=O)CNC(N)=O` ?
Response: -13

Query: Any idea what Percent Effect was measured for Cc1cc(C(=O)NCc2ccc(N3CCCC(C(N)=O)C3)cc2)no1 (configuration not stated) ?
Response: 4.88

Query: Any idea what Percent Effect was measured for CNC(=O)C1CCC(NC(=O)N(C)Cc2c(C)noc2C)CC1 (configuration not stated) ?
Response: -3.28

Query: Any idea what Percent Effect was measured for O=C(c1ccc(Br)o1)N1CCCCC1Cn1cccn1 (configuration not stated) ?
Response: 0.924

Query: Any idea what Percent Effect was measured for `CC(C)CN1C[C@H]2CCN(c3ncccn3)CC[C@H]2S1(=O)=O` ?
Response: -15.2

Query: Any idea what Percent Effect was measured for Cc1cccc(Nc2nccnc2C2CCCN2CC(=O)N(C)C)n1 (configuration not stated) ?
Response: -3.5

Query: Any idea what Percent Effect was measured for CN1CC(=O)N(c2cnn(C)c2)CC12CCN(C(=O)c1ccsc1)C2 (configuration not stated) ?
Response: 2.43

Query: Any idea what Percent Effect was measured for CN(CC1CN(Cc2cn3ccsc3n2)CCO1)c1cccnn1 (configuration not stated) ?
Response: 1.47

Query: Any idea what Percent Effect was measured for CCc1nc(C2CCCN2C(=O)c2ccc3c(c2)nnn3CC)no1 (configuration not stated) ?
Response: 0

Query: Any idea what Percent Effect was measured for `CN(C)C(=O)N1CCN(Cc2noc(Cc3ccccc3)n2)CC1` ?
Response: -2.28

Query: Any idea what Percent Effect was measured for O=C(CN(Cc1cccnc1)CC1CCCO1)Nc1ccc(F)cc1 (configuration not stated) ?
Response: -1.82

Origin of measurements: ChEMBL document CHEMBL3988442
